System: IL-8 release in d-U937 cells
Assay: LPS-induced IL-8 release in d-U937 cells
Format: cell-based, human
Conditions: Homo sapiens, dU937
pIC50: −log10 of the molar value.
parameter-measured: pIC50

molecule	assayed-target	pIC50
CNC(=O)Nc1cc(Oc2ccc(NC(=O)Nc3cc(C4(C)CCCCC4)nn3-c3ccc(C)cc3)c(Cl)c2Cl)ccn1 [Example 73]	IL-8 release in d-U937 cells	8.72

I. CNC(=O)Nc1cc(Oc2ccc(NC(=O)Nc3cc(C(C)(C)C)nn3-c3ccc(OC)cc3)c(Cl)c2Cl)ccn1 [Example 9]
II. CNC(=O)Nc1nccc(Oc2ccc(NC(=O)Nc3cc(C(C)(C)C)nn3-c3ccc(CO)cc3)c(Cl)c2Cl)n1 [Example 25]
Request: Compare reported pIC50 values for I and II . Which is lower? Your answer should be the label attached to the chosen record.
Response: II
(II: 8.60, I: 9.10)

* * *

Tested on: IL-8 release in d-U937 cells
Experiment: LPS-induced IL-8 release in d-U937 cells
Format: cell-based, human
Settings: Homo sapiens, dU937
parameter-measured: IC50 (nM)

compound	assayed-target	unit-spec	IC50
CNC(=O)Nc1cc(Oc2ccc(NC(=O)Nc3cc(C(C)(C)C)nn3-c3ccc(CO)c(Cl)c3)c(Cl)c2Cl)ccn1	IL-8 release in d-U937 cells	nM	3.2
CN(C)[C@H]1CCN(C(=O)Nc2cc(Oc3ccc(NC(=O)Nc4cc(C(C)(C)C)nn4-c4ccc(CO)cc4)c(Cl)c3Cl)ccn2)C1	IL-8 release in d-U937 cells	nM	34
COCC(=O)Nc1cc(Oc2ccc(NC(=O)Nc3cc(C(C)(C)C)nn3-c3ccc(C)cc3)c(Cl)c2Cl)ccn1	IL-8 release in d-U937 cells	nM	3.4
CNCC(=O)Nc1cc(Oc2ccc(NC(=O)Nc3cc(C(C)(C)C)nn3-c3ccc(CO)cc3)c(Cl)c2Cl)ccn1	IL-8 release in d-U937 cells	nM	4.7
COCC(=O)Nc1cc(Oc2ccc(NC(=O)Nc3cc(C(C)(C)C)nn3-c3ccc(OC)cc3)c(Cl)c2Cl)ncn1	IL-8 release in d-U937 cells	nM	5.9

A. COc1ccc(-n2nc(C(C)(C)C)cc2NC(=O)Nc2ccc(Oc3ccnc(NC(=O)N4CCC(O)C4)c3)c(Cl)c2Cl)cc1 (centres unmarked)
B. CC(C)(C)c1cc(NC(=O)Nc2ccc(Oc3ccnc(NC(=O)N4CCCC4)c3)c(Cl)c2Cl)n(-c2ccc(CO)cc2)n1
Request: Between these two entries, A and B , state which has the higher IC50. Your answer should be the label attached to the chosen record.
Response: A

I. CNC(=O)Nc1cc(Oc2ccc(NC(=O)Nc3cc(C(C)(C)C)nn3-c3ccc(CO)cc3)c3ncccc23)ccn1
II. COc1ccc(-n2nc(C(C)(C)C)cc2NC(=O)Nc2ccc(Oc3ccnc(NC(=O)N4CC[C@H](N(C)C)C4)c3)c(Cl)c2Cl)cc1
Request: Between these two entries, I and II , state which has the higher IC50. Your answer should be the label attached to the chosen record.
Response: I
(I: 235 nM, II: 4.6 nM)

a. CNC(=O)Nc1cc(COc2ccc(NC(=O)Nc3cc(C(C)(C)C)nn3-c3ccc(C)cc3)c3cccnc23)ccn1
b. COCC(=O)Nc1cc(Oc2ccc(NC(=O)Nc3cc(C(C)(C)C)nn3-c3ccc(C)cc3)c(C(F)(F)F)c2)ccn1
Request: Between these two entries, a and b , state which has the higher IC50. Your answer should be the label attached to the chosen record.
Response: a

1. COCC(=O)Nc1cc(Oc2ccc(NC(=O)Nc3cc(C(C)(C)C)nn3-c3ccc(C)cc3)c(Cl)c2C(F)(F)F)ccn1
2. COCC(=O)Nc1cc(Oc2ccc(NC(=O)Nc3cc(C(C)(C)C)nn3-c3ccc(CO)cc3)c(Cl)c2Cl)ccn1
Request: Between these two entries, 1 and 2 , state which has the higher IC50. Your answer should be the label attached to the chosen record.
Response: 1
(1: 6.9 nM, 2: 2.2 nM)

Hey, just so you know, these numbers are from patent US10000471B2.
